- subject.of.test: human CCR8 (human, UniProt P51685 1-355)
- Sequence (P51685 whole entry): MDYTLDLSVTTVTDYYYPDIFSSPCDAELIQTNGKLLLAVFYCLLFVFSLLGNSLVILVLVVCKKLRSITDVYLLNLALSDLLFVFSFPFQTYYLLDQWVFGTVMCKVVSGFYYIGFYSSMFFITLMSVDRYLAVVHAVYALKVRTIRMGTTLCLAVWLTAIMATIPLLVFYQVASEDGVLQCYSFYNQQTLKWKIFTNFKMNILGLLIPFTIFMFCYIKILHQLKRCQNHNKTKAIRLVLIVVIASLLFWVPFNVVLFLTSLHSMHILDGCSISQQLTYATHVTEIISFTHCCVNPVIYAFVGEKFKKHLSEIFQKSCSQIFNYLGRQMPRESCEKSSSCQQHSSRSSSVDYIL
- measurement.protocol: cell-based or functional assay
Note to self: EC50 (nM), NK cell mediated cytotoxicity (ADCC) on CCR8-expressing Treg under 0.08 nM means condition met, ties and anything higher get condition not met.

| binder | discrete.label |
| --- | --- |
| Ch305-AF (antibody, V domains shown, human IgG1/kappa; also called afucosylated Ch305) VH: QVQMKQSGPSLVQPSQSLSITCTVSGFSLTSYGVHWVRQSPGKGLEWLGVIWRGGTTDYNAAFMSRLSFTKDSSKSQVFFKLNSLQADDTAIYYCAKNRVTTVVAPNFYAMDYWGQGTSVTVSS VL: DIVMTQSPSSLAVSVGEKVTMSCKSSQSLLYSGNQKNYLAWYQQKPGQSPKLLIYWASTRKSGVPDRLTGSGSGTDFTLTISSVKAEDLAAYYCQQYYTYPLTFGAGTRLEIK | condition met |
| hu305-5W-3a-AF (antibody, V domains shown, also called afucosylated hu305-5W-3a) VH: QVQLKQSGPGLVKPSETLSLTCTVSGFSLAVYGVHWVRQPPGKGLEWLGVIWRGGTTDYNPSLKSRLTFSKDSSKSQVSLKLSSVTAADTAVYYCAKNRVTTVVAPNFYAMDYWGQGTLVTVSS VL: DIVMTQSPDSLAVSLGERATINCKSSQSLLYSGNQKNYLAWYQQKPGQPPKLLIYWASTRKSGVPDRFSGSGSGTDFTLTISSLKAEDVAVYYCQQYYTYPLTFGQGTRLEIK | condition met |
| hu305-5P-3a-AF (antibody, V domains shown) VH: QVQLKQSGPGLVKPSETLSLTCTVSGFSLTSYGVHWVRQPPGKGLEWLGVIWRGGTTDYNPSLKSRVTFSKDSSKNQVSLKLSSVTAADTAVYYCAKNRVTTVVAPNFYAMDYWGQGTLVTVSS VL: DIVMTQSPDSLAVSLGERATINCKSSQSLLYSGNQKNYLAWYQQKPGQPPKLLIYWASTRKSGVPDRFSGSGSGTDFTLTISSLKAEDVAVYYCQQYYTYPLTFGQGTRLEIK | condition met |

In plain terms, does hu305-4F-2l-AF (antibody, V domains shown, also called hu305-4F-21-AF; hu305-4F-21) VH: QVQLQESGPGLVKPSQTLSLTCTVSGFSLAVYGVHWVRQPPGKGLEWLGVIWRGGTTDYNPSLKSRLTFSKDSSKSQVSLKLSSVTAADTAVYYCAKNRVTTVVAPNFYAMDYWGQGTLVTVSS VL: DIVMTQSPDSLAVSLGERVTMNCKSSQSLLYSGNQKNYLAWYQQKPGQSPKLLIYWASTRKSGVPDRFSGSGSGTDFTLTISSLQAEDVAAYYCQQYYTYPLTFGQGTRLEIK come in under 0.08 nM for EC50 (nM), NK cell mediated cytotoxicity (ADCC) on CCR8-expressing Treg? condition not met

Please check: EC50 (nM), NK cell mediated cytotoxicity (ADCC) on CCR8-expressing Treg for hu305-4F-2m-AF (antibody, V domains shown) VH: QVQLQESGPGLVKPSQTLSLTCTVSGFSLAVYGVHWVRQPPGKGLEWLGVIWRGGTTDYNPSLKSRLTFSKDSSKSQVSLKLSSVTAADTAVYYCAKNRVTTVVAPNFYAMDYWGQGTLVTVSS VL: DIVMTQSPDSLAVSLGERVTINCKSSQSLLYSGNQKNYLAWYQQKPGQSPKLLIYWASTRKSGVPDRFSGSGSGTDFTLTISSLQAEDVAAYYCQQYYTYPLTFGQGTRLEIK , strictly under 0.08 nM or not? condition not met
